The values you see were collected from paper PMC5540273.

- System: CDK4-cyclinD3;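 also: KINOMEscan kinase panel screen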
- applied.conditions: concentration: 1 μM, replicates: in singlicate; n = 1
property.name: %Inh (%)
Answers are plain numbers, in %.

Below are worked cases with known answers.
{"compound": "Cc1cccc(-c2nc(Nc3cccc(C(N)=O)c3)c3ccccc3n2)n1", "%Inh [%]": 0}
{"compound": "Cn1cncc1-c1ccc2ncnc(Nc3ccc(OCc4ccccc4)cc3)c2c1", "%Inh [%]": 13}
{"compound": "O=C(Nc1n[nH]c2nc(-c3nccs3)c(Br)cc12)C1CCCC1", "%Inh [%]": 14}

Can you give me %Inh for all of these, one by one?
1. COc1ccccc1CNC(=O)c1cc(C(=O)c2ccccc2C)c[nH]1
2. Cl.c1ccc(-c2n[nH]cc2-c2ccnc(-c3ccc(CN4CCOCC4)cc3)c2)nc1
3. Fc1cc(Cl)ccc1Nc1ccnc2cc(-c3ccc(CN4CCCCC4)o3)ccc12
4. Fc1cc(Cl)ccc1Nc1ccnc2cc(I)ccc12

1. 7
2. 0
3. 0
4. 0
